biological target: hVR1 (Homo sapiens, UniProt Q8NER1); construct: R710-07 (T-REx host cell line); host or cells: T-REx System cell line, called 'human keratinocyte cell line' and 'HEK 293 cells'; experiment: Determination of pA2 values against capsaicin stimulation (Ca2+ imaging, Schild analysis); format: cell-based
Sequence (Q8NER1 whole entry): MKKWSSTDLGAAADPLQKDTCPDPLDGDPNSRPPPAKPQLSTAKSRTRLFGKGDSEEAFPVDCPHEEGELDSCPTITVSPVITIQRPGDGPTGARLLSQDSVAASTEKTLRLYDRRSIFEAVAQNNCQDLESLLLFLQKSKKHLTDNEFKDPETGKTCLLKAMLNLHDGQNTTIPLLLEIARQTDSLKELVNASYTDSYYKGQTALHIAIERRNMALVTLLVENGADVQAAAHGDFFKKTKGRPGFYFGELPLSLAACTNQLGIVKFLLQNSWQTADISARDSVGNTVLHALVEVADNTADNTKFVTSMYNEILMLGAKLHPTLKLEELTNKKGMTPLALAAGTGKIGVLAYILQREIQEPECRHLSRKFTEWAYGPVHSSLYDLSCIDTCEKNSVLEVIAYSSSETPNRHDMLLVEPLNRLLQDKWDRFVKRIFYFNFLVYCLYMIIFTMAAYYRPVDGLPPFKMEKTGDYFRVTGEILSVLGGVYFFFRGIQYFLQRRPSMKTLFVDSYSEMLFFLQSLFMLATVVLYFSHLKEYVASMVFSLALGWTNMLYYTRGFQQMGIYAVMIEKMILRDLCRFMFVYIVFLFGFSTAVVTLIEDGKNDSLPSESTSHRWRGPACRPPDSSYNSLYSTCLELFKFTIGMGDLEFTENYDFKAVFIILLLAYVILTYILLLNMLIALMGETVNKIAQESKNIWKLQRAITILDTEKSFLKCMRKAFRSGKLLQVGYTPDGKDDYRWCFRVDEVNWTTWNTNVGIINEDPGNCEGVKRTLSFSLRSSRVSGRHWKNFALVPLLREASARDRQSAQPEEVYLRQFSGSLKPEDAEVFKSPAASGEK
// label = Fulfilled if Kb is not less than 0.04 µM, otherwise Not fulfilled

INSERT INTO measurements (molecule, testedtarget, discretelabel) VALUES
  ('CC(NC(=O)[C@H]1COc2cc(C(F)(F)F)ccc2O1)c1ccc2[nH]ncc2c1 (stereo partly drawn) [Compound 13]', 'hVR1 (Homo sapiens, UniProt Q8NER1)', 'Not fulfilled'),
  ('C[C@@H](NC(=O)[C@H]1CCc2nc(C(C)(C)C(F)(F)F)ccc2C1)c1cnn2c1OCCC2 [Compound 22]', 'hVR1 (Homo sapiens, UniProt Q8NER1)', 'Fulfilled'),
  ('CC(NC(=O)[C@H]1COc2cc(C(C)(C)C)ccc2O1)c1ccc2[nH]ncc2c1 (single isomer, unassigned) [Compound 7]', 'hVR1 (Homo sapiens, UniProt Q8NER1)', 'Not fulfilled'),
  ('CC(C)(C)c1ccc2c(c1)OC(C(=O)Nc1cnc3sc(CO)nc3c1)CO2 (stereo not drawn) [Compound 8]', 'hVR1 (Homo sapiens, UniProt Q8NER1)', 'Not fulfilled'),
  ('C[C@@H](NC(=O)[C@H]1COc2cc(C(F)(F)F)ccc2O1)c1ccc2[nH]ncc2c1 [Compound 26]', 'hVR1 (Homo sapiens, UniProt Q8NER1)', 'Not fulfilled'),
  ('C[C@@H](NC(=O)[C@@H]1COc2cc(C(F)(F)F)ccc2O1)c1ccc2[nH]ncc2c1 [Compound 25]', 'hVR1 (Homo sapiens, UniProt Q8NER1)', 'Fulfilled');
